Experiment: Acute toxicity (LD50, Behrens-Karber method)
Format: in vivo, ICR mice
Details: mouse, in vivo, ip, mortality during 30 days
Please respond with class 1 when measured LD50 at 720 h is strictly beneath 600 mg/kg, and with class 0 in all other cases.

Examples from the recorded data:
{"molecule": "CCCCO[C@H]1O[C@H](CN(C)C(=O)N(CCCl)N=O)[C@H](O)[C@H](O)[C@H]1O", "class-label": "class 1"}
{"molecule": "CC(C)CO[C@@H]1OC[C@H](N(C(=O)N(CCCl)N=O)C2CCCCC2)[C@H](O)[C@H]1O", "class-label": "class 1"}
{"molecule": "CC(C)CO[C@@H]1O[C@H](CN(C(=O)N(CCCl)N=O)C(C)(C)C)[C@@H](O)[C@H](O)[C@H]1O", "class-label": "class 1"}
{"molecule": "CCCCOC1OC(CO)C(O)C(N(CC(C)OC)C(=O)N(CCCl)N=O)C1O (stereo not shown)", "class-label": "class 0"}
{"molecule": "CO[C@H]1O[C@H](CNC(=O)N(CCCl)N=O)[C@@H](O)[C@H](O)[C@H]1O [Compound 6MCαG, reference compound]", "class-label": "class 1"}
{"molecule": "COCC(C)N(C(=O)N(CCCl)N=O)[C@H]1[C@@H](O)[C@@H](CO)O[C@H](OCC(C)C)[C@@H]1O (stereo partly shown)", "class-label": "class 0"}

Exercise: # check: LD50 at 720 h < 600 mg/kg for COCCCOC1OC(CO)C(O)C(O)C1N(CC(C)C)C(=O)N(CCCl)N=O (stereo not shown)
Solution: class 1

---

Assay: Acute toxicity (LD50, Behrens-Karber method)
Assay type: in vivo, ICR mice
Conditions: mouse, in vivo, ip, mortality during 30 days
Here, each record is paired with measured LD50 at 720 h data.
Respond numerically; units are mg/kg and should not be typed.

{"compound": "CC(C)CN(C[C@@H]1O[C@@H](OC2CCCCC2)[C@H](O)[C@@H]1O)C(=O)N(CCCl)N=O [Compound 171]", "reading-unit": "mg/kg", "quantitative-readout": 450}

Exercise: Please look up its LD50 at 720 h: CCCN(C[C@H]1O[C@H](OC2CCCCC2)[C@H](O)[C@@H](O)[C@H]1O)C(=O)N(CCCl)N=O [Compound 98]
Solution: 600

Exercise: Please look up its LD50 at 720 h: CCCCO[C@H]1O[C@H](CN(CCCC)C(=O)N(CCCl)N=O)[C@@H](O)[C@H](O)[C@H]1O [Compound 6]
Solution: 390

Exercise: Please look up its LD50 at 720 h: CCCCOC1OC(CO)C(O)C(N(CCCOC)C(=O)N(CCCl)N=O)C1O (stereo not drawn) [Compound 82]
Solution: 655

Exercise: Please look up its LD50 at 720 h: CC(C)CCN(C(=O)N(CCCl)N=O)[C@H]1[C@@H](O)[C@@H](CO)O[C@H](OCC(C)C)[C@@H]1O [Compound 127]
Solution: 600

Exercise: Please look up its LD50 at 720 h: CO[C@H]1O[C@H](CO)[C@@H](O)[C@H](O)[C@H]1NC(=O)N(CCCl)N=O [Compound 2MCαG, reference compound]
Solution: 46

Exercise: Please look up its LD50 at 720 h: COCC(C)N(C[C@H]1O[C@H](OCC(C)C)[C@H](O)[C@@H](O)[C@@H]1O)C(=O)N(CCCl)N=O (stereo partly drawn) [Compound 16]
Solution: 580

Exercise: Please look up its LD50 at 720 h: COC(C)CN(C[C@H]1O[C@H](OC2CCCCC2)[C@H](O)[C@@H](O)[C@H]1O)C(=O)N(CCCl)N=O (stereo partly drawn) [Compound 103]
Solution: 685

Exercise: Please look up its LD50 at 720 h: CCCC(OC)O[C@H]1O[C@H](CN(CCC(C)(C)C)C(=O)N(CCCl)N=O)[C@@H](O)[C@H](O)[C@H]1O (stereo partly drawn) [Compound 191]
Solution: 560

Exercise: Please look up its LD50 at 720 h: CC(C)CO[C@H]1O[C@H](CN(Cc2ccccc2)C(=O)N(CCCl)N=O)[C@@H](O)[C@H](O)[C@H]1O [Compound 22]
Solution: 510

Exercise: Please look up its LD50 at 720 h: O=NN(CCCl)C(=O)N(CCCCO)C1C(OC2CCCCC2)OC(CO)C(O)C1O (stereo not drawn) [Compound 66]
Solution: 620

Exercise: Please look up its LD50 at 720 h: COCCCO[C@@H]1O[C@H](CN(CC(C)C)C(=O)N(CCCl)N=O)[C@@H](O)[C@H]1O [Compound 167]
Solution: 510

Exercise: Please look up its LD50 at 720 h: CCOCCCN(C(=O)N(CCCl)N=O)[C@H]1[C@H](OC(C)CC)OC[C@H](O)[C@@H]1O (stereo partly drawn) [Compound 157]
Solution: 550

Exercise: Please look up its LD50 at 720 h: C=C(C)CN(C(=O)N(CCCl)N=O)[C@H]1[C@@H](OCCCC)O[C@H](CO)[C@@H](O)[C@@H]1O [Compound 56]
Solution: 460

Exercise: Please look up its LD50 at 720 h: CCOCCO[C@H]1O[C@H](CO)[C@H](N(CC(C)C)C(=O)N(CCCl)N=O)[C@H](O)[C@H]1O [Compound 131]
Solution: 565

---

System: Leukemia L1210
Experiment: Activity against Leukemia L1210, oral, increase in life span of mice
Format: in vivo, female mice (BDF1 family)
Conditions: oral; O.D./ILS30
Here, each record is paired with measured Therapeutic ratio TR data.

Below, each entry is followed by its recorded Therapeutic ratio TR result.
{"compound": "CCOCCO[C@H]1O[C@H](CN(C(=O)N(CCCl)N=O)C(C)C)[C@H](O)[C@H](O)[C@H]1O", "tested-target": "Leukemia L1210", "result": 24.6}
{"compound": "O=NN(CCCl)C(=O)N(CC1CCCO1)[C@H]1[C@H](OC2CCCCC2)OC[C@H](O)[C@@H]1O (some centres unmarked)", "tested-target": "Leukemia L1210", "result": 18.4}
{"compound": "CC(C)CO[C@H]1O[C@H](CN(CC(C)(C)C)C(=O)N(CCCl)N=O)[C@@H](O)[C@H](O)[C@H]1O", "tested-target": "Leukemia L1210", "result": 15.2}

Exercise: Please look up its Therapeutic ratio TR: CC(C)CO[C@H]1O[C@H](CN(CC2CCCO2)C(=O)N(CCCl)N=O)[C@@H](O)[C@H](O)[C@H]1O (some centres unmarked)
Solution: 28.6

Exercise: Please look up its Therapeutic ratio TR: COC(C)CCO[C@H]1O[C@H](CN(C(=O)N(CCCl)N=O)C(C)(C)C)[C@@H](O)[C@H](O)[C@H]1O (some centres unmarked)
Solution: 22.7

Exercise: Please look up its Therapeutic ratio TR: CC(CN1CCOCC1)O[C@@H]1O[C@H](CN(C(=O)N(CCCl)N=O)C(C)(C)C)[C@@H](O)[C@H](O)[C@H]1O (some centres unmarked)
Solution: 18.9

Exercise: Please look up its Therapeutic ratio TR: COCC(C)N(C[C@H]1O[C@H](OC2CCCCC2)[C@@H](O)[C@@H](O)[C@H]1O)C(=O)N(CCCl)N=O (some centres unmarked)
Solution: 18.3

Exercise: Please look up its Therapeutic ratio TR: COCCCO[C@H]1O[C@H](CN(CC(C)(C)C)C(=O)N(CCCl)N=O)[C@@H](O)[C@H](O)[C@H]1O
Solution: 23.4

---

Here, each record is paired with measured log10 ED (maximum ILS) data.
Test system: Leukemia L1210
Assay: Activity against Leukemia L1210, oral, increase in life span of mice
Assay type: in vivo, female mice (BDF1 family)
Details: Mus musculus, L1210; oral once a day for 5 successive days; daily dosage giving maximum increase of life span; read-out: O.D. (optimum dosage)
Could you please treat all values as log10 of ED (maximum ILS) in mg/kg?

Below, each entry is followed by its recorded log10 ED (maximum ILS) result.
{"molecule": "O=NN(CCCl)C(=O)N(C1CCCCC1)C1C(OCC2CCCO2)OC(CO)C(O)C1O (stereo not shown)", "log10 ED (maximum ILS)": 2.30}
{"molecule": "COCC(C)N(C[C@H]1O[C@H](OCC(C)C)[C@H](O)[C@@H](O)[C@@H]1O)C(=O)N(CCCl)N=O (stereo partly shown)", "log10 ED (maximum ILS)": 2.38}
{"molecule": "CCOCCN(C(=O)N(CCCl)N=O)C1C(OC2CCCCC2)OC(CO)C(O)C1O (stereo not shown)", "log10 ED (maximum ILS)": 2.38}

Exercise: Please look up its log10 ED (maximum ILS): CC(C)CO[C@H]1O[C@H](CN(CC2CCCO2)C(=O)N(CCCl)N=O)[C@@H](O)[C@@H](O)[C@@H]1O (stereo partly shown)
Solution: 2.34

Exercise: Please look up its log10 ED (maximum ILS): COCCCO[C@H]1O[C@H](CN(C(=O)N(CCCl)N=O)C2CCCCC2)[C@@H](O)[C@H](O)[C@H]1O
Solution: 2.36

Exercise: Please look up its log10 ED (maximum ILS): COCCN(C(=O)N(CCCl)N=O)C1C(O)C(CO)OC(OC2CCCCC2)C1O (stereo not shown)
Solution: 2.32

Exercise: Please look up its log10 ED (maximum ILS): O=NN(CCCl)C(=O)N[C@@H]1O[C@H](CO)[C@@H](O)[C@H](O)[C@H]1O [GANU, reference compound]
Solution: 0.80
